Recorded values, source patent US20250090699A1.

Molecular target: UniProt P97321
Sequence (P97321 26-761): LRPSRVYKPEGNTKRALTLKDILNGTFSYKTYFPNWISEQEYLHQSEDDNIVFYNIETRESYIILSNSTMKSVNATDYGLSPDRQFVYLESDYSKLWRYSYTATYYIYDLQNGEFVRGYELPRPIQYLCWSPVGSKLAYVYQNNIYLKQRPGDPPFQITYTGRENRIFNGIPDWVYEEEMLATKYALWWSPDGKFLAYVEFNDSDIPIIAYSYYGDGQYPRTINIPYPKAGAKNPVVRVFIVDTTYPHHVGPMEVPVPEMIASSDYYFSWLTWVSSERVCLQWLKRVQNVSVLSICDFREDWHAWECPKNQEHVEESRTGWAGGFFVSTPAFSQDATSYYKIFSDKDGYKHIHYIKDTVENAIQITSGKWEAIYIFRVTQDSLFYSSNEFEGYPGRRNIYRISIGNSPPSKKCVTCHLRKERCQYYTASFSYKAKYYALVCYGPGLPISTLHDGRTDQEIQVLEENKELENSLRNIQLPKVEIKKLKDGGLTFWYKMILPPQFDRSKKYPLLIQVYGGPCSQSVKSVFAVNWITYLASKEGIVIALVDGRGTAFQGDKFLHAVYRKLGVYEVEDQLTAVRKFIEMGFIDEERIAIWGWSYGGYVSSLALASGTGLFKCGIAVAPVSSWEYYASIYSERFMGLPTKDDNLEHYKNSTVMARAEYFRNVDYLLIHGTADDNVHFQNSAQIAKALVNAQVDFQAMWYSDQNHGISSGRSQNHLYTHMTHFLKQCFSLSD
Structures can show the parent of a compound that is named as a salt. Non-standard residues stand in square brackets, D forms with d. Residues, ends and D or L forms follow the SMILES beside them. AEF = NCCOc1ccc(C[C@H](N)C(=O)O)cc1; NMeF = CN[C@@H](Cc1ccccc1)C(=O)O; Ahp(2) = CCCCC[C@H](N)C(=O)O; Nphe = O=C(O)CNCc1ccccc1
Field: pIC50. Provide a value for each of the compounds that follow.
// returns pIC50 (minus log10 of molar concentration), number only

Prompt: Field request: pIC50 | item: CCCCC[C@@H]1NC(=O)[C@H](Cc2ccc(O)cc2)NC(=O)[C@H](Cc2ccccc2)N(C)C(=O)CNC(=O)CNC(=O)[C@H]2CCCN2C(=O)[C@H](CC(=O)O)NC(=O)CN(Cc2ccccc2)C(=O)CNC(=O)[C@H](Cc2c[nH]c3ccccc23)NC1=O [Example A74] (cyclo(GG[NMeF]Y[Ahp(2)]WG[Nphe]D[dP]))
Completion: 8.48

Prompt: Using the record for CCCCC[C@@H]1NC(=O)[C@H](Cc2ccc(O)cc2)NC(=O)[C@H](Cc2ccccc2)N(C)C(=O)CNC(=O)CNC(=O)[C@H]2CCCN2C(=O)[C@H](CC(=O)O)NC(=O)[C@H](Cc2ccc(O)cc2)NC(=O)CNC(=O)[C@H](Cc2c[nH]c3ccccc23)NC1=O [Example A52] (cyclo([Ahp(2)]WGYD[dP]GG[NMeF]Y)) , report its pIC50.
Completion: 9.13

Prompt: Given CCCCC[C@@H]1NC(=O)[C@H](Cc2ccc(O)cc2)NC(=O)[C@H](Cc2ccccc2)N(C)C(=O)CNC(=O)CNC(=O)[C@H]2CCCN2C(=O)[C@H](CC(N)=O)NC(=O)[C@H](Cc2ccc(O)cc2)NC(=O)CNC(=O)[C@H](Cc2c[nH]c3ccccc23)NC1=O [Example A58] (cyclo([Ahp(2)]WGYN[dP]GG[NMeF]Y)) , state its recorded pIC50.
Completion: 7.34

Prompt: Requested read-out: pIC50. Entry: CCCCC[C@@H]1NC(=O)[C@H](Cc2ccc(OCCN)cc2)NC(=O)[C@H](Cc2ccccc2)N(C)C(=O)CNC(=O)CNC(=O)[C@H]2CCCN2C(=O)[C@H](CC(=O)O)NC(=O)[C@H](Cc2ccc(O)cc2)NC(=O)CNC(=O)[C@H](Cc2c[nH]c3ccccc23)NC1=O [Example A59, TFA salt] (cyclo([AEF][Ahp(2)]WGYD[dP]GG[NMeF]))
Completion: 9.31

Prompt: Dear colleague, I am looking for the recorded pIC50 of the following compound: CCCCC[C@@H]1NC(=O)[C@H](Cc2ccc(OCCN)cc2)NC(=O)[C@H](Cc2ccccc2)N(C)C(=O)CNC(=O)[C@@H]2CCCN2C(=O)[C@H]2CCCN2C(=O)[C@H](CC(=O)O)NC(=O)[C@H](Cc2ccc(O)cc2)NC(=O)CNC(=O)[C@H](Cc2c[nH]c3ccccc23)NC1=O [Example A32] (cyclo(G[NMeF][AEF][Ahp(2)]WGYD[dP]P))
Completion: 8.92

Prompt: What pIC50 value was documented for this compound, CCCCC[C@@H]1NC(=O)[C@H](Cc2ccc(O)cc2)NC(=O)[C@H](Cc2ccccc2)N(C)C(=O)CNC(=O)CNC(=O)[C@H]2CCCN2C(=O)[C@H](C)NC(=O)[C@H](Cc2ccc(O)cc2)NC(=O)CNC(=O)[C@H](Cc2c[nH]c3ccccc23)NC1=O [Example A56] (cyclo(A[dP]GG[NMeF]Y[Ahp(2)]WGY)) ?
Completion: 7.51

###

Counter-ions that a name gives are not always drawn. Starred links: 1 amine or outer side, 2 acyl side, 3 side chain; linkers in the order of their positions; H or OH if unused. Non-standard residues stand in square brackets, D forms with d. Residues, ends and D or L forms follow the SMILES beside them. Groups on a side chain read outwards from the residue. *: point of attachment. DOTA = O=C(O)CN1CCN(CC(=O)O)CCN(CC(=O)*)CCN(CC(=O)O)CC1; Piperazinyl(4-CH2COOH) = O=C(O)CN1CCN(*)CC1; AEF = NCCOc1ccc(C[C@H](N)C(=O)O)cc1; NMeF = CN[C@@H](Cc1ccccc1)C(=O)O; Ahp(2) = CCCCC[C@H](N)C(=O)O; hSer = N[C@@H](CCO)C(=O)O; CO = O=C([*:1])[*:2]
Target or system mouse FAP (Mus musculus): recorded IC50 listed per item.
Please give a number only; it is taken to be in pM.

Prompt: Tell me the measured IC50 of CCCCC[C@@H]1NC(=O)[C@H](Cc2ccc(OCCNC(=O)CN3CCN(CC(=O)O)CCN(CC(=O)O)CCN(CC(=O)O)CC3)cc2)NC(=O)[C@H](Cc2ccccc2)N(C)C(=O)CNC(=O)[C@H](CCO)NC(=O)[C@H]2CCCN2C(=O)[C@H](CC(=O)O)NC(=O)[C@H](Cc2ccc(O)cc2)NC(=O)CNC(=O)[C@H](Cc2c[nH]c3ccccc23)NC1=O [Example B26, TFA salt] (cyclo([hSer]G[NMeF][AEF](DOTA)[Ahp(2)]WGYD[dP])) , please.
Completion: 117

Prompt: Given the entry CCCCC[C@@H]1NC(=O)[C@H](Cc2ccc(OCCNC(=O)CN3CCN(CC(=O)O)CCN(CC(=O)O)CCN(CC(=O)O)CC3)cc2)NC(=O)[C@H](Cc2ccccc2)N(C)C(=O)CNC(=O)[C@H](CCCCNC(=O)N2CCN(CC(=O)O)CC2)NC(=O)[C@H]2CCCN2C(=O)[C@H](CC(=O)O)NC(=O)[C@H](Cc2ccc(O)cc2)NC(=O)CNC(=O)[C@H](Cc2c[nH]c3ccccc23)NC1=O [Example B25] (cyclo([AEF](DOTA)[Ahp(2)]WGYD[dP]K([CO-Piperazinyl(4-CH2COOH)])G[NMeF])) , report its measured IC50.
Completion: 380

###

Target: mouse FAP (Mus musculus)
Construct: biotinylated His, Avi tag, mouse FAP (26-761, FAP-M82Q5); His; Avi tag (biotinylated); purchased AcroBiosystems FAP-M82Q5
Sequence (P97321 26-761): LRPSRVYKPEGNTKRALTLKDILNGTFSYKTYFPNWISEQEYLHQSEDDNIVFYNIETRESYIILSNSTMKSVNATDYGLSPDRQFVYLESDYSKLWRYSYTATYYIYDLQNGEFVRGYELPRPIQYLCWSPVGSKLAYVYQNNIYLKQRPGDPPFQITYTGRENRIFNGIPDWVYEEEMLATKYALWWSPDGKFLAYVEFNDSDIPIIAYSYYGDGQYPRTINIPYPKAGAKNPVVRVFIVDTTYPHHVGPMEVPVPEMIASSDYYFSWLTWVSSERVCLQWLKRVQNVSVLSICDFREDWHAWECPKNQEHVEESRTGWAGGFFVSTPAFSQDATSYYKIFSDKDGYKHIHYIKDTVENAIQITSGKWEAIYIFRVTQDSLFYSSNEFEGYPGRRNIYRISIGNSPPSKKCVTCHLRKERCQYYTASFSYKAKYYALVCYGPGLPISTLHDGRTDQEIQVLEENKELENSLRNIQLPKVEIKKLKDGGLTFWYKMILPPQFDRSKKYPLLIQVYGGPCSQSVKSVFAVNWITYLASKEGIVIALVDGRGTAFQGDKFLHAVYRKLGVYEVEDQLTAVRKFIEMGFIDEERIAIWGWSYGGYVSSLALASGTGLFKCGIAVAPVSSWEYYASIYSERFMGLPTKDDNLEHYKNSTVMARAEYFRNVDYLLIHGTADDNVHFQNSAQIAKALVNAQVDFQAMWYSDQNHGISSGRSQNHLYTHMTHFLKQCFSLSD
Assay: Surface plasmon resonance (SPR) for peptide affinity, mouse FAP
Format: binding
Where a name gives a salt, the structure may show the parent alone. Starred links: 1 amine or outer side, 2 acyl side, 3 side chain; linkers in the order of their positions; H or OH if unused. Non-standard residues stand in square brackets, D forms with d. Residues, ends and D or L forms follow the SMILES beside them. Groups on a side chain read outwards from the residue. *: point of attachment. DOTA = O=C(O)CN1CCN(CC(=O)O)CCN(CC(=O)*)CCN(CC(=O)O)CC1; Phe(4-CH2NH2) = NCc1ccc(C[C@H](N)C(=O)O)cc1; Piperazinyl(4-CH2COOH) = O=C(O)CN1CCN(*)CC1; AEF = NCCOc1ccc(C[C@H](N)C(=O)O)cc1; NMeCha = CN[C@@H](CC1CCCCC1)C(=O)O; X10 = O=C([C@H]1COCCN1[*:1])[*:2]; NMeF = CN[C@@H](Cc1ccccc1)C(=O)O; Ahp(2) = CCCCC[C@H](N)C(=O)O; CO = O=C([*:1])[*:2]; X3 = FC1(F)CCN(*)C1; Sar = CNCC(=O)O
Assign Kd to each entry below.
Entry rule: numbers only, all in pM.

Prompt: Request the reported Kd associated with CCCCC[C@@H]1NC(=O)[C@H](Cc2ccc(O)cc2)NC(=O)[C@H](Cc2ccccc2)N(C)C(=O)CNC(=O)CNC(=O)CN(C)C(=O)[C@H](CC(=O)O)NC(=O)[C@H](Cc2ccc(O)cc2)NC(=O)CNC(=O)[C@H](Cc2c[nH]c3ccccc23)NC1=O [Example A68] (cyclo([Ahp(2)]WGYD[Sar]GG[NMeF]Y))
Completion: 35000

Prompt: Look at this compound and give its reported Kd. CCCCC[C@@H]1NC(=O)[C@H](Cc2ccc(O)cc2)NC(=O)[C@H](Cc2ccccc2)N(C)C(=O)CNC(=O)[C@H](CCCCN)NC(=O)[C@H]2CCCN2C(=O)[C@H](CC(=O)O)NC(=O)[C@H](Cc2ccc(O)cc2)NC(=O)CNC(=O)[C@H](Cc2c[nH]c3ccccc23)NC1=O [Example A53, TFA salt] (cyclo([Ahp(2)]WGYD[dP]KG[NMeF]Y))
Completion: 720

Prompt: Need Kd, item CCCCC[C@@H]1NC(=O)[C@H](Cc2ccc(CNC(=O)CN3CCN(CC(=O)O)CCN(CC(=O)O)CCN(CC(=O)O)CC3)cc2)NC(=O)[C@H](Cc2ccccc2)N(C)C(=O)CNC(=O)CNC(=O)[C@H]2CCCN2C(=O)[C@H](CC(=O)O)NC(=O)[C@H](Cc2ccc(O)cc2)NC(=O)CNC(=O)[C@H](Cc2c[nH]c3ccccc23)NC1=O [Example B17, TFA salt] (cyclo([Ahp(2)]WGYD[dP]GG[NMeF][Phe(4-CH2NH2)](DOTA)))
Completion: 133

Prompt: Sample CCCCC[C@@H]1NC(=O)[C@H](Cc2ccc(O)cc2)NC(=O)[C@H](CC2CCCCC2)N(C)C(=O)CNC(=O)[C@H](CCCCN)NC(=O)[C@H]2CCCN2C(=O)[C@H](CC(=O)O)NC(=O)[C@H](Cc2ccc(O)cc2)NC(=O)CNC(=O)[C@H](Cc2c[nH]c3ccccc23)NC1=O [Example A43, TFA salt] (cyclo([Ahp(2)]WGYD[dP]KG[NMeCha]Y)) — what was its Kd?
Completion: 188

Prompt: Look up Kd for this compound: CN1C(=O)CNC(=O)[C@H](CCCCN)NC(=O)[C@H]2CCCN2C(=O)[C@H](CC(=O)O)NC(=O)[C@H](Cc2ccc(O)cc2)NC(=O)CNC(=O)[C@H](Cc2c[nH]c3ccccc23)NC(=O)[C@H](CCC(=O)N2CCC(F)(F)C2)NC(=O)[C@H](Cc2ccc(O)cc2)NC(=O)[C@@H]1Cc1ccccc1 [Example A30, TFA salt] (cyclo(D[dP]KG[NMeF]YE(X3)WGY))
Completion: 2400

Prompt: Which Kd value is on record for CCCCC[C@@H]1NC(=O)[C@H](Cc2ccc(OCCNC(=O)CN3CCN(CC(=O)O)CCN(CC(=O)O)CCN(CC(=O)O)CC3)cc2)NC(=O)[C@H](Cc2ccccc2)N(C)C(=O)CNC(=O)CNC(=O)[C@H]2CCCN2C(=O)[C@H](CC(=O)O)NC(=O)[C@H](CCCCNC(=O)N2CCN(CC(=O)O)CC2)NC(=O)CNC(=O)[C@H](Cc2c[nH]c3ccccc23)NC1=O [Example B3] (cyclo([AEF](DOTA)[Ahp(2)]WGK([CO-Piperazinyl(4-CH2COOH)])D[dP]GG[NMeF])) ?
Completion: 93

Prompt: Given the compound CCCCC[C@@H]1NC(=O)[C@H](Cc2ccc(O)cc2)NC(=O)[C@H](Cc2ccccc2)N(C)C(=O)CNC(=O)CNC(=O)[C@H]2COCCN2C(=O)[C@H](CC(=O)O)NC(=O)[C@H](Cc2ccc(O)cc2)NC(=O)CNC(=O)[C@H](Cc2c[nH]c3ccccc23)NC1=O [Example A63] (cyclo([Ahp(2)]WGYD[X10]GG[NMeF]Y)) , what is its reported Kd?
Completion: 20000
